- System: HCT-116 colon
- METHOD_DESCRIPTION: NCI-60 one-dose screen, 48 h
- CONDITION_PARAMETERS: 10 µM unless noted
About 83,000 compounds went through this panel and 20% of them were active in at least one assay; those are over-represented in the sample as a whole. Calls of active or inactive are those of the source. Rule for the calls: active = growth percent below 10; inactive = the rest.
// one of active, inactive, no free text

Worked cases, answers included:
Exercise: // outcome(item) with item = O=C(NNC(=S)Nc1ccccc1)c1ccccn1
Key: inactive

Exercise: Next record, please: CCOc1ccc(/C=C/C=N/NC(N)=S)cc1
Key: inactive

Exercise: Next record, please: CCNCc1ccncc1
Key: inactive

Exercise: Next record, please: CCn1cc(C(=O)O)c(=O)c2cc(F)c(N3CCN(S(=O)(=O)c4ccc(OC)c(OC)c4)CC3)cc21
Key: inactive

Exercise: Next record, please: CCCC(C(=O)OCC)C(C)OC(=O)OCC (configuration not stated)
Key: inactive

Exercise: Next record, please: CCCCNC(=O)NS(=O)(=O)c1ccc(N2N=C(c3ccc(C)cc3C)CC2c2ccc(OC)cc2)cc1 (configuration not stated)
Key: inactive

Exercise: Next record, please: CC1CCc2c(sc(NC(=O)CSc3nnc4ccccn34)c2C(N)=O)C1 (configuration not stated)
Key: inactive

Exercise: Next record, please: COc1ccc(S(=O)(=O)Nc2cc(/C=C\c3cc(OC)c(OC)c(OC)c3)cc(OC)c2OC)cc1OC
Key: inactive

In the following, a different molecule is considered.
Exercise: // outcome(item) with item = O=S(=O)(NCCCNc1cc(-c2cn(-c3ccccc3)nc2-c2cccc(O)c2)ccn1)c1ccc(Cl)cc1
Key: inactive

----------
- System: SK-MEL-28 melanoma
- METHOD_DESCRIPTION: NCI-60 one-dose screen, 48 h (100 = growth as untreated, 0 = no growth, -100 = all killed)
- CONDITION_PARAMETERS: 10 µM unless noted
Compounds without any hit were thinned out: in the full panel of roughly 83,000, 20% have a hit.
READOUT: growth (%)
Answers are plain numbers, in %.

Exercise: Under SK-MEL-28 melanoma: growth value of C=CCN=C1NC(=O)/C(=C/c2cc(C(C)(C)C)c(O)c(C(C)(C)C)c2)S1 ?
Key: 73.3

Exercise: Next record, please: COc1cc(C2C3=C(COC3=O)Nc3c2ccc2c3CCCC2)cc2c1OCO2 (centres undefined)
Key: 70.1

Exercise: Next record, please: Clc1nc2ccccc2nc1CI
Key: 103

Exercise: Next record, please: Cc1oc2nc[nH]c(=O)c2c1C(=O)/C=C/c1ccc(Cl)cc1Cl
Key: 89.1

Parameter requested: growth. Apply to each item below.
1. Cc1cccc(-n2c(C)nc3ccc(NC(=O)NCCCl)cc3c2=O)c1
2. COc1cc(Cn2c(SCC(=O)Nc3ccc(Cl)cc3)nc3ccccc3c2=O)cc(OC)c1OC
3. O=C1N=C(c2c(-c3[nH]c(=O)c4ccc(Br)cc4c3O)c(O)c3ccccc3c2O)C(=O)c2cc(Br)ccc21
4. O=C(Nc1cc(C(F)(F)F)cc(C(F)(F)F)c1)Nc1ccc(OCc2nnc(-c3ccc(Cl)cc3)o2)c(F)c1
5. Cc1ccc2nc(-c3c(N)n[nH]c3CCCO)[nH]c(=O)c2c1
6. COc1cc(NCCN=C(N)NC(N)=NC(C)C)c2ncccc2c1
7. COc1ccc(S(=O)(=O)Nc2cc(/C=C\c3cc(OC)c(OC)c(OC)c3)cc(OC)c2OC)cc1OC
8. CN(C)C/C=C/C(=O)Nc1cc2c(Nc3ccc(F)c(Cl)c3F)ncnc2cc1OCCOC(F)F

Key:
[113, 83.7, -47.8, 28.8, 115, 86.1, 52.5, 49.4]

Parameter requested: growth. Apply to each item below.
1. COc1cccc(NC(=O)Cn2cc3c(=O)oc4ccccc4c3n2)c1
2. Nc1c(C(=O)Nc2cccc(C(F)(F)F)c2)sc2nc3c(cc12)CCCCC3
3. CCN(C(=O)c1cc2ncccc2[nH]1)[C@H]1CCC[C@@H](NCc2cccc(F)c2)C1

Key:
1. 94
2. 20.8
3. 103

Parameter requested: growth. Apply to each item below.
1. Cc1c(C(=O)NCc2ccccc2)[n+](=O)c2cc(F)ccc2n1[O-]
2. COc1ccc2c(c1)C(C)Cc1c(N(C)C)ncnc1N2C (centres undefined)
3. CC(Cc1nnc(SCC(=O)Nc2ccc(I)cc2)n1N)c1ccccc1 (centres undefined)
4. CCNC(=O)C1CCCN1C(=O)C(CCCN=C(N)N)NC(=O)C(CC(C)C)NC(=O)C(CC(C)C)NC(=O)C(Cc1ccc(O)cc1)NC(=O)C(CO)NC(=O)C(Cc1c[nH]c2ccccc12)NC(=O)C(Cc1cnc[nH]1)NC(=O)C1CCC(=O)N1 (centres undefined)

Key:
1: 91.3; 2: 59.3; 3: 133; 4: 168
